subjectOfTest: UniProt Q64669
measurementDescription: Induction of QR1-mediated cytoprotective activity in mouse TAOc1 mutant Hepa cells at 50 uM assessed as cell survival
Type: cell-based
quantityKind: Survival (%)
One number for each entry, in %.

Consider the reported Survival for these compounds:
>>> df
                            smilesstructure  numericvalue
0  FC(F)(F)c1ccc(-c2nsc(-c3ccc(C(F)(F)F)cc3)n2)cc1            91
1  Clc1ccc(-c2nsc(-c3ccc(Cl)cc3Cl)n2)c(Cl)c1          82.4
2             c1ccc(-c2nsc(-c3ccccc3)n2)cc1          85.9

Now, please, on to the next compound.
Look up and state reported Survival for `Cc1cc(Cl)ccc1-c1nsc(-c2ccc(Cl)cc2C)n1`
71

----------
subjectOfTest: NAD(P)H dehydrogenase [quinone] 1 (Mus musculus) (UniProt Q64669)
Sequence (Q64669 whole entry): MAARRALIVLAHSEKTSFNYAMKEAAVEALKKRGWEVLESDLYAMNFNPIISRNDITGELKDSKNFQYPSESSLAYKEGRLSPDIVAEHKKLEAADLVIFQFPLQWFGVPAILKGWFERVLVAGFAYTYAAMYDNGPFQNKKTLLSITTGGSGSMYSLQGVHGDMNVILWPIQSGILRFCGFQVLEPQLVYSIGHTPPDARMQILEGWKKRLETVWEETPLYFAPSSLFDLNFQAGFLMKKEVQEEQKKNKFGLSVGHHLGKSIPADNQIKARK
measurementDescription: Induction of QR1-mediated cytoprotective activity in mouse BPrc1 cells at 50 uM assessed as cell survival
Format: cell-based
Would you mind telling me the reported Survival of each entry?
Give bare numbers, in %.

Record Survival per entry; entries follow.
1. Cc1cc(Cl)ccc1-c1nsc(-c2ccc(Cl)cc2C)n1
2. CC(C)(C)c1ccc(-c2nsc(-c3ccc(C(C)(C)C)cc3)n2)cc1
3. FC(F)(F)c1ccccc1-c1nsc(-c2ccccc2C(F)(F)F)n1
4. Brc1ccccc1-c1nsc(-c2ccccc2Br)n1
5. Clc1ccc(-c2nsc(-c3ccc(Cl)cc3)n2)cc1
6. FC(F)(F)c1ccc(-c2nsc(-c3ccc(C(F)(F)F)cc3)n2)cc1

1. 94.7
2. 85.1
3. 81
4. 100
5. 79.3
6. 71

Record Survival per entry; entries follow.
1. Fc1ccccc1-c1nsc(-c2ccccc2F)n1
2. c1ccc2cc(-c3nsc(-c4ccc5ccccc5c4)n3)ccc2c1

1. 88.4
2. 98.1

----------
Would you mind telling me the reported Survival of each entry?
subjectOfTest: NAD(P)H dehydrogenase [quinone] 1 (Mus musculus) (UniProt Q64669)
measurementDescription: Induction of QR1-mediated cytoprotective activity in mouse Hepa-1c1c7 cells at 50 uM assessed as cell survival
Type: cell-based
Answers are plain numbers, in %.

Consider the reported Survival for these compounds:
In [3]: df
Out[3]:
                                   compound                             subjectoftest  numericvalue
0   Cc1ccc(-c2nsc(-c3ccc(C)cc3Br)n2)c(Br)c1  NAD(P)H dehydrogenase [quinone] 1 (Mus musculus) (UniProt Q64669)          49.6
1   Clc1cccc(-c2nsc(-c3cccc(Cl)c3Cl)n2)c1Cl  NAD(P)H dehydrogenase [quinone] 1 (Mus musculus) (UniProt Q64669)            47
2         Fc1cccc(-c2nsc(-c3cccc(F)c3)n2)c1  NAD(P)H dehydrogenase [quinone] 1 (Mus musculus) (UniProt Q64669)          77.6
3         Oc1cccc(-c2nsc(-c3cccc(O)c3)n2)c1  NAD(P)H dehydrogenase [quinone] 1 (Mus musculus) (UniProt Q64669)             4
4         Cc1ccc(-c2nsc(-c3ccc(C)cc3)n2)cc1  NAD(P)H dehydrogenase [quinone] 1 (Mus musculus) (UniProt Q64669)          96.8
5  Clc1ccc(Cl)c(-c2nsc(-c3cc(Cl)ccc3Cl)n2)c1  NAD(P)H dehydrogenase [quinone] 1 (Mus musculus) (UniProt Q64669)          88.1
6       COc1ccc(-c2nsc(-c3ccc(OC)cc3)n2)cc1  NAD(P)H dehydrogenase [quinone] 1 (Mus musculus) (UniProt Q64669)          94.2
7  Clc1ccc(-c2nsc(-c3ccc(Cl)c(Cl)c3)n2)cc1Cl  NAD(P)H dehydrogenase [quinone] 1 (Mus musculus) (UniProt Q64669)            80

Record Survival per entry; entries follow.
1. Oc1ccc(CCc2cc(O)cc(O)c2)cc1 [DIHYDRORESVERATROL]
2. Cc1c(Cl)cccc1-c1nsc(-c2cccc(Cl)c2C)n1
3. N#Cc1cccc(-c2nsc(-c3cccc(C#N)c3)n2)c1

[82.6, 96, 57.9]

Record Survival per entry; entries follow.
1. COc1cccc(-c2nsc(-c3cccc(OC)c3)n2)c1
2. Clc1ccc(-c2nsc(-c3ccc(Cl)cc3Cl)n2)c(Cl)c1
3. Brc1ccc(-c2nsc(-c3ccc(Br)cc3)n2)cc1
4. c1ccc(-c2nsc(-c3ccccc3)n2)cc1
5. Brc1ccccc1-c1nsc(-c2ccccc2Br)n1
6. Cc1cc(Cl)ccc1-c1nsc(-c2ccc(Cl)cc2C)n1
7. FC(F)(F)c1ccccc1-c1nsc(-c2ccccc2C(F)(F)F)n1
8. Clc1ccc(-c2nsc(-c3ccc(Cl)cc3)n2)cc1

[63.7, 30.6, 87, 50.3, 72.5, 77.3, 88.8, 78.3]

----------
subjectOfTest: Aromatase (Homo sapiens, UniProt P11511)
Sequence (P11511 whole entry): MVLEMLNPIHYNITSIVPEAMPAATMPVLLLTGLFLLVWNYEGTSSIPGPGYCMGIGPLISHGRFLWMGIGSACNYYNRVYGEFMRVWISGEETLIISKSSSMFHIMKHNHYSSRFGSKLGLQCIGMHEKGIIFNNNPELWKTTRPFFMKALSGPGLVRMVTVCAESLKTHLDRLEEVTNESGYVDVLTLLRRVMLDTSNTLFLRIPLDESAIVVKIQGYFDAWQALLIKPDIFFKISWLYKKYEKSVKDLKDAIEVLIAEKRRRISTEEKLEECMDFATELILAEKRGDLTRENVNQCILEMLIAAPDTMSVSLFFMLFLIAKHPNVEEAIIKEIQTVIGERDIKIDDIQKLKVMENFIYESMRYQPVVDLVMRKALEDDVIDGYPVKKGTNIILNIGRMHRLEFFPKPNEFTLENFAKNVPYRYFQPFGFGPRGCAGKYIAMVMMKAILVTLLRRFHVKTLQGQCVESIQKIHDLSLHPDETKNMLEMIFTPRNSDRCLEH
measurementConditions: 2 h, read-out: Imax
Use 1 when the recorded inhibition at 50 µM is no lower than 40%; use -1 when it is lower.

Check out these entries, answers already filled in.
In [3]: df
Out[3]:
                           smilesstructure  categorylabel
0      COc1cccc(-c2nsc(-c3cccc(OC)c3)n2)c1             -1
1  CCCCc1ccc(-c2nsc(-c3ccc(CCCC)cc3)n2)cc1             -1
2        Oc1ccc(-c2nsc(-c3ccc(O)cc3)n2)cc1              1
3  Cc1ccc(-c2nsc(-c3ccc(C)cc3Br)n2)c(Br)c1              1

Hello, I need to know if `Ic1cccc(-c2nsc(-c3cccc(I)c3)n2)c1` has measured inhibition at 50 µM not below 40%. Thanks!
-1

Hello, I need to know if `CC(C)(C)c1ccc(-c2nsc(-c3ccc(C(C)(C)C)cc3)n2)cc1` has measured inhibition at 50 µM not below 40%. Thanks!
1

Hello, I need to know if `N#Cc1cccc(-c2nsc(-c3cccc(C#N)c3)n2)c1` has measured inhibition at 50 µM not below 40%. Thanks!
-1

----------
Would you mind telling me the reported inhibition at 40 µM of each entry?
Tested on: RAW264.7
measurementDescription: Antiinflammatory activity in mouse RAW264.7 cells assessed as inhibition of LPS-induced NO production at 40 uM preincubated for 30 mins before LPS challenge by Griess method
One number for each entry, in %.

                            smilesstructure         quantitykind  numericvalue
0     Cc1cc(Br)ccc1-c1nsc(-c2ccc(Br)cc2C)n1  inhibition at 40 µM          23.3
1             Ic1ccccc1-c1nsc(-c2ccccc2I)n1  inhibition at 40 µM            30
2  Clc1ccc(-c2nsc(-c3ccc(Cl)cc3Cl)n2)c(Cl)c1  inhibition at 40 µM            25
3  FC(F)(F)c1ccccc1-c1nsc(-c2ccccc2C(F)(F)F)n1  inhibition at 40 µM           6.7
4           Clc1ccccc1-c1nsc(-c2ccccc2Cl)n1  inhibition at 40 µM          -5.9
5  FC(F)(F)c1ccc(-c2nsc(-c3ccc(C(F)(F)F)cc3)n2)cc1  inhibition at 40 µM           8.5

Record inhibition at 40 µM per entry; entries follow.
1. Cc1cccc(-c2nsc(-c3cccc(C)c3)n2)c1
2. Cc1c(Cl)cccc1-c1nsc(-c2cccc(Cl)c2C)n1
3. CCCCc1ccc(-c2nsc(-c3ccc(CCCC)cc3)n2)cc1
4. N#Cc1cccc(-c2nsc(-c3cccc(C#N)c3)n2)c1
5. Fc1ccccc1-c1nsc(-c2ccccc2F)n1
6. c1ccc(-c2nsc(-c3ccccc3)n2)cc1
7. Clc1ccc(-c2nsc(-c3ccc(Cl)cc3)n2)cc1

[0.9, 24.5, -3.5, 26.4, 24.6, 55.7, 5.1]

----------
subjectOfTest: UniProt:P11511
measurementConditions: 2 h, read-out: Imax
Use Met when the recorded inhibition at 50 µM is no lower than 40%; use Not met when it is lower.

Check out these entries, answers already filled in.
>>> df
                                   molecule  categorylabel
0             Fc1ccccc1-c1nsc(-c2ccccc2F)n1            Met
1             c1ccc(-c2nsc(-c3ccccc3)n2)cc1            Met
2  Clc1ccc(Cl)c(-c2nsc(-c3cc(Cl)ccc3Cl)n2)c1        Not met
3         Fc1cccc(-c2nsc(-c3cccc(F)c3)n2)c1            Met
4   Clc1cccc(-c2nsc(-c3cccc(Cl)c3Cl)n2)c1Cl            Met

Then there is this molecule:
Hello, I need to know if `O=[N+]([O-])c1ccc(-c2nsc(-c3ccc([N+](=O)[O-])cc3)n2)cc1` has measured inhibition at 50 µM not below 40%. Thanks!
Not met
